// PCAF lookup, one value per entry
# Subject of test: PCAF (Homo sapiens)
# Construct: gene KAT2B
# Sequence (Q92831 whole entry): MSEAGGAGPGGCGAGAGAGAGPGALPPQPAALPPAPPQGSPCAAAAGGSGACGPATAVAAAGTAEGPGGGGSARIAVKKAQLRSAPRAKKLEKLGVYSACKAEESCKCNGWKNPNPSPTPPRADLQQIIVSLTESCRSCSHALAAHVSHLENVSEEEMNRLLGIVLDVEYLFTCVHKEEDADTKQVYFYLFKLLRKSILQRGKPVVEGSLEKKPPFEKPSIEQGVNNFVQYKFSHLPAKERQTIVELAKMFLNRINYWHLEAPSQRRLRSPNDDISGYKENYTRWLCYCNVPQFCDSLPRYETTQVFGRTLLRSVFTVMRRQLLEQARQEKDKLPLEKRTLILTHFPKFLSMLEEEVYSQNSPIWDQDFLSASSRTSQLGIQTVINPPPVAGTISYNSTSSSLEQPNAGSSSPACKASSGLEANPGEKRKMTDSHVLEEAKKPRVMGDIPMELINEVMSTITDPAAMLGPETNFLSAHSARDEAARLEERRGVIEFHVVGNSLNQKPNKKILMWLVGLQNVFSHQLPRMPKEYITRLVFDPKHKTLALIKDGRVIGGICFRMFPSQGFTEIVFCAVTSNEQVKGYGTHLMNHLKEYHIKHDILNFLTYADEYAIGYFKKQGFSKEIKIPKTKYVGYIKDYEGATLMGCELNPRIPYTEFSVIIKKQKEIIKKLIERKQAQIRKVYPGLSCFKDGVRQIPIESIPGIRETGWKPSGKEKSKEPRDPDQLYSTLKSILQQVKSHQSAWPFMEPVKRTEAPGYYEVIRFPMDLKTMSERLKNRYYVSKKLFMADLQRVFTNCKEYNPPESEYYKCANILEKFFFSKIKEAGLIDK
# Set-up: Intact protein LC/MS covalent labelling, fragments in pools of five, 200 uM each, 4 °C
# Condition info: 24 h, 4 °C, pool of five; 200 µM; covalent
Write the number on its own, no unit after it.

Example molecules with recorded PCAF:
1) Cc1cc(NC(=O)CCl)ccc1N1CCCC1    0
2) CS(=O)(=O)c1ccc(NC(=O)CCl)cc1    0
3) N#CSc1ccc(NC(=O)CCl)c(Br)c1    0
4) C=CC(=O)N1CCC(CN)CC1.Cl    0
5) CC(=O)NNC(=O)CCl    0

Problem: Name the reported PCAF value associated with the molecule CC1CCN(C(=O)CCl)C2CCCCC12 (centres unmarked)
Result: 0

Problem: Would you mind telling me what PCAF value was observed for O=C(CCl)Nc1ccccc1C(=O)O ?
Result: 0

Problem: Item C=CC(=O)N1CCC2(CC1)CNC(=O)C2 has what recorded PCAF?
Result: 0

Problem: I am curious: what PCAF value has been reported for O=C(CCl)NNC(=O)c1cc2c(s1)CCCC2 ?
Result: 0

Problem: # input molecule: CN(C)C(=O)c1ccc(NC(=O)CCl)cc1 ; wanted: its PCAF
Result: 0

All values here come from paper PMC6556873.
